Data credit: patent EP4714976A1

Listed binders paired with reported Kd
Molecular target: T1, human FGFR2b (Kaixia Biotechnology, catalog number FGR-HM1BB) (human, UniProt P21802-3 22-378)
T1 construct: extracellular domain; bought; also called hFGFR2b; human FGFR2b protein
T1 sequence (P21802 other isoform, or with tags, fused parts or gaps): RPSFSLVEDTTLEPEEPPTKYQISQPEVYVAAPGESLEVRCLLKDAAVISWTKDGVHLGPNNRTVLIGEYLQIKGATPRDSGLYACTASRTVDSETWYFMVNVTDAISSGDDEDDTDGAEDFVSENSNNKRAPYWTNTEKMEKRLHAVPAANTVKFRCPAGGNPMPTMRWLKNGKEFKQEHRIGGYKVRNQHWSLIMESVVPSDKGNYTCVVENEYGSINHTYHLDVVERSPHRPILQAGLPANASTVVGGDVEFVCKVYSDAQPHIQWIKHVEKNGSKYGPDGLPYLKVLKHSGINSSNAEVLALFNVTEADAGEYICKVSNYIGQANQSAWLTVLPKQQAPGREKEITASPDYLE
Assay: BLI, antibody on AHC2 sensor
Please state the figure in nM; there is no need to write the unit.

{"binder": "3H9-VH1-VL0 (antibody, human IgG1, kappa, V domains shown, humanized IgG1) VH: QVQLVQSGAEVKKPGASVKVSCKASGYTFTFYNMHWVRQAPGQGLEWIGLIYPDNGDTSYNQKFKGRATLTADTSTSTVYMELSSLRSEDTAVYYCARGGLDYWGQGTTVTVSS VL: DIQMTQSPSSLSASVGDRVTITCRASENIYSNLAWYQQKPGKAPKLLIYAATNLADGVPSRFSGSGSGTDFTLTISSLQPEDFATYYCQHFWGTPYTFGGGTKVEIKR", "number": 18.5}

input: For 3H9-VH0-VL0 (antibody, human IgG1, kappa, V domains shown, humanized IgG1) VH: QVQLVQSGAEVKKPGASVKVSCKASGYTFTFYNMHWVRQAPGQGLEWMGLIYPDNGDTSYNQKFKGRATLTADTSTSTVYMELSSLRSEDTAVYYCARGGLDYWGQGTTVTVSS VL: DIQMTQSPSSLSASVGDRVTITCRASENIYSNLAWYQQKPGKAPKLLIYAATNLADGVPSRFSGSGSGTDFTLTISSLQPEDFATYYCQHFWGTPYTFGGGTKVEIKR , what is its reported Kd?
output: 6.51

input: For 3C7-VH1-VL1 (antibody, human IgG1, kappa, V domains shown, humanized IgG1) VH: QVQLVQSGAEVKKPGASVKVSCKASGYIFTNYYIHWVRQAPGQGLEWMGAIYPDNGDTSYNQRFKVRATLTADTSTSTVYMELSSLRSEDTAVYYCARAFTYWGQGTTVTVSS VL: DIQMTQSPSSLSASVGDRVTITCGASENIYGALNWYQQKPGKAPKLLIYGATNLADGVPSRFSGSGSGTDYTLTISSLQPEDVATYYCQNVLSTPYTFGGGTKVEIKR , what is its reported Kd?
output: 3.24

input: For 3C7-VH2-VL1 (antibody, human IgG1, kappa, V domains shown, humanized IgG1) VH: QVQLVQSGAEVKKPGASVKVSCKASGYIFRNYYIHWVRQAPGQGLEWMGAIYPDNGDTSYNQRFKVRATLTADTSTSTVYMELSSLRSEDTAVYYCARAFTYWGQGTTVTVSS VL: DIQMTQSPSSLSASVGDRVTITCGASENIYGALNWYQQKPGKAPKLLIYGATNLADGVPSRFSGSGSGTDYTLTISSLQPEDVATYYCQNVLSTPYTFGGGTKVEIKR , what is its reported Kd?
output: 2.92
